Listed here: items and their measured log2FC (compound/DMSO).
# Test system: kinase protein levels in MCF-7 cells
# assay-info: TMT-labeled quantitative proteomics
# Type: cell-based, human
# measurement-setup: protein NBPF19;NBPF15;NBPF8;NBPF10;NBPF26;NBPF14; MCF7; 1 µM; set1.1
endpoint-name: log2FC (compound/DMSO)

input-smiles	target-or-system	endpoint-result
Cc1ncsc1-c1ccc(CNC(=O)[C@@H]2C[C@@H](O)CN2C(=O)[C@@H](NC(=O)CCOCCOCCOCCOCCN2CCN(c3ccc(Nc4ncc(Cl)c(Nc5ccccc5C(N)=O)n4)cc3)CC2)C(C)(C)C)cc1	kinase protein levels in MCF-7 cells	-0.7206
Cc1ncsc1-c1ccc(CNC(=O)[C@@H]2C[C@@H](O)CN2C(=O)[C@@H](NCCOCCOCCOCCOCCC(=O)N2CCN(c3ccc(Nc4ncc(Cl)c(Nc5ccccc5C(N)=O)n4)cc3)CC2)C(C)(C)C)cc1	kinase protein levels in MCF-7 cells	-0.692
Cc1ncsc1-c1ccc(CNC(=O)[C@@H]2C[C@@H](O)CN2C(=O)[C@@H](NC(=O)CCOCCOCCOCCN2CCN(c3cc(Nc4cc(C5CC5)[nH]n4)nc(Nc4ccc(CC#N)cc4)n3)CC2)C(C)(C)C)cc1	kinase protein levels in MCF-7 cells	-0.3973
Cc1ncsc1-c1ccc(CNC(=O)[C@@H]2C[C@@H](O)CN2C(=O)[C@@H](NC(=O)CCOCCOCCNC(=O)c2cc(Nc3cc(C4CC4)[nH]n3)nc(Nc3ccc(CC#N)cc3)n2)C(C)(C)C)cc1	kinase protein levels in MCF-7 cells	-0.2083
